tested on: Escherichia coli EC14; assay: MIC, standard agar-dilution assay; type: cell-based; settings: Escherichia coli, EC14, read-out: minimal inhibitory concentration (MIC)
TEST_READOUT: MIC
Express the reported value numerically, then name its unit.

Some entries whose results are on file:
Notebook entry, Escherichia coli EC14 assay: MIC of CCOC(=O)C1CC1CN[C@@H]1[C@H](C)[C@@H](O)[C@](C)(O)[C@@H](CC)OC(=O)[C@H](C)[C@@H](O[C@H]2C[C@@](C)(OC)[C@@H](O)[C@H](C)O2)[C@H](C)[C@@H](O[C@@H]2O[C@H](C)C[C@H](N(C)C)[C@H]2O)[C@](C)(O)C[C@H]1C (stereo partly drawn) [Compound 27] = ? 128 µg/mL

# value lookup — system Escherichia coli EC14, readout MIC, item CCCCCN[C@@H]1[C@H](C)[C@@H](O)[C@](C)(O)[C@@H](CC)OC(=O)[C@H](C)[C@@H](O[C@H]2C[C@@](C)(OC)[C@@H](O)[C@H](C)O2)[C@H](C)[C@@H](O[C@@H]2O[C@H](C)C[C@H](N(C)C)[C@H]2O)[C@](C)(O)C[C@H]1C [Compound 5, 9-Deoxo-9-(n-pentylamino)erythromycin] 128 µg/mL

Proceeding to the next compound to report its MIC.
Hi! What's the reported MIC for CC[C@H]1OC(=O)[C@H](C)[C@@H](O[C@H]2C[C@@](C)(OC)[C@@H](O)[C@H](C)O2)[C@H](C)[C@@H](O[C@@H]2O[C@H](C)C[C@H](N(C)C)[C@H]2O)[C@](C)(O)C[C@@H](C)[C@H](NCCCSC)[C@H](C)[C@@H](O)[C@]1(C)O [Compound 26] on Escherichia coli EC14? 128 µg/mL

Attribution: patent US5110800A
